# target under test: human TRPA1 (Homo sapiens, UniProt O75762)
# Sequence (O75762 whole entry): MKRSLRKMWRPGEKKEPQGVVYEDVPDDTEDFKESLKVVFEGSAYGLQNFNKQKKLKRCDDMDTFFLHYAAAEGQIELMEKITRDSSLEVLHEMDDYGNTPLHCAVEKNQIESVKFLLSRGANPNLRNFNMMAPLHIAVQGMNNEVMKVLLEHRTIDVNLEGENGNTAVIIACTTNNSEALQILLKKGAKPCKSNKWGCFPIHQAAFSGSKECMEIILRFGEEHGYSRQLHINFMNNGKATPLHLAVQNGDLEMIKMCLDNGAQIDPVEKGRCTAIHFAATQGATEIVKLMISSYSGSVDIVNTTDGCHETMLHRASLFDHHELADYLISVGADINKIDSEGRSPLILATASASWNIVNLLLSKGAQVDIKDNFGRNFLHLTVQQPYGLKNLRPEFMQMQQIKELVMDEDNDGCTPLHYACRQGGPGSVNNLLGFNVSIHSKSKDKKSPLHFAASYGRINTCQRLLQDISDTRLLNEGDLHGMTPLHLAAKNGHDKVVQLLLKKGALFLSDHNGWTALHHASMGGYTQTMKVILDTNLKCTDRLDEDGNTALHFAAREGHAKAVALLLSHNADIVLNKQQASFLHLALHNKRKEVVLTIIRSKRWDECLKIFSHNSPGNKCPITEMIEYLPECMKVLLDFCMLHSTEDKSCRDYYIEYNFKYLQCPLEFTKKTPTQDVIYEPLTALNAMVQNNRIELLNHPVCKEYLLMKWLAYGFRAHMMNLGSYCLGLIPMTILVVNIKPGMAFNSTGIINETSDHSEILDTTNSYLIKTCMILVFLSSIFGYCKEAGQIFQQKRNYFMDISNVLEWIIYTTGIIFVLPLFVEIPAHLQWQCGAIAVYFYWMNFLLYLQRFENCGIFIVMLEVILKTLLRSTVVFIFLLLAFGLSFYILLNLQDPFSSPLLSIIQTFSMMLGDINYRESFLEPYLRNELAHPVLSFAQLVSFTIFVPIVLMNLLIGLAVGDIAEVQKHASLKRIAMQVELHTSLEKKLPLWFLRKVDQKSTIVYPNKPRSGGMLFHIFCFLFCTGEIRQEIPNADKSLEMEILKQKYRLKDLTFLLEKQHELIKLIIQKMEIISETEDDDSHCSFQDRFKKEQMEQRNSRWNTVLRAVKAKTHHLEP
# assay protocol: Inhibition of the TRPA1 ion channel, whole cell patch configuration (Example 1)
# assay conditions: current activation 10 µM AITC, read-out: Human TRPA1 IC50 Inward Current
pIC50: −log10 of the molar value.
Reported pIC50 by item:

Check out these entries, answers already filled in.
Enquiry: Reported pIC50 for C[C@H](C(=O)Nc1cccc(-c2cnc(N3CCC[C@@H]3C)nc2)n1)n1cnc2c1c(=O)n(C)c(=O)n2C [Compound 4-R] : what is it?
Return: < 7.00

Enquiry: What do we get for C[C@H]1CCCN1c1ncc(-c2cncc(NC(=O)[C@H](C)n3cnc4c3c(=O)n(C)c(=O)n4C)n2)cn1 [Compound 3-K] ?
Return: 7.12 to 7.60

Enquiry: What do we get for C[C@H]1CCCN1c1ncc(-c2cncc(NC(=O)[C@H](C)n3cnc4c3c(=O)n(C)c(=O)n4C)n2)cn1 [Compound 3-N] ?
Return: < 7.00

Now for the compound whose pIC50 we want.
Enquiry: Reported pIC50 for C[C@H]1CCCN1c1ncc(-c2cccc(NC(=O)[C@H](C)n3cnc4c3c(=O)n(C)c(=O)n4C)n2)cn1 [Compound 4-P] : what is it?
Return: 7.12 to 7.60

----------
# Tested on: rats
# assay protocol: Rodent formalin pain model (Example 3)
# Assay type: in vivo
# assay conditions: dose 0.3 mg/kg IV, rat, first two minutes after formalin; vehicle 88.6
# Excerpt: Compounds of Formula (Ia) are active in rodent models of pain induced by direct activation of the TRPA1 channel with intraplantar injection of the TRPA1 agonist formalin. […] Table 2 is a data table showing the results from testing compounds of Formula (Ia) in the rodent formalin-induced pain model described in Example 2. […] Pain behaviors (flinch, lift, lick, bite) were monitored following intraplantar formalin injection. […]
Where a name gives a salt, the structure may show the parent alone.
measure: Duration of Pain Behavior (s)
API: value field is a number in s; no unit string.

Check out these entries, answers already filled in.
Enquiry: Reported Duration of Pain Behavior for C[C@@H](C(=O)N(COP(=O)(O)O)c1cncc(-c2cnc(N3CCC[C@H]3C(F)(F)F)nc2)n1)n1cnc2c1c(=O)n(C)c(=O)n2C [Compound 5-S] : what is it?
Return: 69.8

Enquiry: What do we get for C[C@@H](C(=O)Nc1cncc(-c2cnc(N3CCCC3(C)C)nc2)n1)n1cnc2c1c(=O)n(C)c(=O)n2C [Compound 2-F] ?
Return: 67.5

Enquiry: What do we get for CC(C(=O)N(COP(=O)(O)O)c1cccc(-c2cnc(N3CCCC3C(F)(F)F)nc2)n1)n1cnc2c1c(=O)n(C)c(=O)n2C (stereo not shown) [Compound 1-A, phosphate, sodium salt] ?
Return: 77.7

Now for the molecule whose Duration of Pain Behavior we want.
Enquiry: Reported Duration of Pain Behavior for C[C@@H](C(=O)N(COP(=O)(O)O)c1cncc(-c2cnc(N3CCCC3(C)C)nc2)n1)n1cnc2c1c(=O)n(C)c(=O)n2C [Compound 2-E] : what is it?
Return: 80.4

----------
# assay protocol: Aqueous solubility in buffered solutions, HPLC (Example 2)
# Type: physicochemical
# assay conditions: buffered solution (sodium phosphate buffer), kinetic from dmso stock, pH 7.4, 75 mM sodium phosphate, ambient temperature, read-out: pH 7.4 aqueous solubility
measure: solubility kinetic at 24 h

Enquiry: Reported solubility kinetic at 24 h for C[C@H]1CCCN1c1ncc(-c2cccc(NC(=O)Cn3cnc4c3c(=O)n(C)c(=O)n4C)n2)cn1 [Comparator 2, reference compound] : what is it?
Return: 7 µg/mL

----------
Reported pIC50 by item:
# target under test: human TRPA1 (Homo sapiens)
# assay protocol: Inhibition of the TRPA1 ion channel, whole cell patch configuration (Example 1)
# assay conditions: current activation 10 µM AITC, read-out: Human TRPA1 IC50 Inward Current
pIC50: −log10 of the molar value. Counter-ions that a name gives are not always drawn.

Check out these entries, answers already filled in.
Enquiry: Report pIC50 for C[C@@H](C(=O)N(COP(=O)(O)O)c1cncc(-c2cnc(N3CCC[C@H]3C(F)(F)F)nc2)n1)n1cnc2c1c(=O)n(C)c(=O)n2C tested on human TRPA1 (Homo sapiens).
Return: < 7.00

Enquiry: What do we get for [2H]C([2H])([2H])n1c(=O)n(C)c(=O)c2c1ncn2[C@H](C)C(=O)Nc1cncc(-c2cnc(N3CCCC3(C)C)nc2)n1 ?
Return: < 7.00

Continuing:
Enquiry: Report pIC50 for C[C@@H](C(=O)N(COP(=O)(O)O)c1cncc(-c2cnc(N3CCCC3(C)C)nc2)n1)n1cnc2c1c(=O)n(C)c(=O)n2C tested on human TRPA1 (Homo sapiens).
Return: < 7.00

Enquiry: What do we get for C[C@H](C(=O)Nc1cccc(-c2cnc(N3CCC[C@H]3C(F)(F)F)nc2)n1)n1cnc2c1c(=O)n(C)c(=O)n2C ?
Return: < 7.00

Enquiry: What do we get for CC(C)c1ccc(NC(=O)C(C)n2cnc3c2c(=O)n(C)c(=O)n3C)cc1 (stereo not shown) [Comparator 3, reference compound] ?
Return: < 7.00

Enquiry: What do we get for CC(C(=O)N(COP(=O)(O)O)c1cccc(-c2cnc(N3CCCC3C(F)(F)F)nc2)n1)n1cnc2c1c(=O)n(C)c(=O)n2C (stereo not shown) [Compound 1-A, phosphate, sodium salt] ?
Return: < 7.00

Enquiry: What do we get for [2H]C([2H])([2H])n1c(=O)n(C)c(=O)c2c1ncn2[C@@H](C)C(=O)Nc1cncc(-c2cnc(N3CCCC3(C)C)nc2)n1 ?
Return: > 7.60

Enquiry: What do we get for C[C@@H](C(=O)Nc1cncc(-c2cnc(N3CCCC3(C)C)nc2)n1)n1cnc2c1c(=O)n(C)c(=O)n2C ?
Return: > 7.60

Enquiry: What do we get for C[C@H]1CCCN1c1cncc(NC(=O)[C@H](C)N2C=NC3C2C(=O)N(C)C(=O)N3C)n1 (stereo partly shown) [Comparator 5, reference compound] ?
Return: < 7.00

Enquiry: What do we get for C[C@H](C(=O)Nc1cncc(-c2cnc(N3CCC[C@H]3C(F)(F)F)nc2)n1)n1cnc2c1c(=O)n(C)c(=O)n2C ?
Return: < 7.00

Enquiry: What do we get for C[C@H]1CCCN1c1ccc(-c2csc(NC(=O)C(C)(C)n3cnc4c3c(=O)n(C)c(=O)n4C)n2)cc1F [Comparator 4, reference compound] ?
Return: < 7.00

Enquiry: What do we get for C[C@@H](C(=O)Nc1cccc(-c2cnc(N3CCC[C@H]3C(F)(F)F)nc2)n1)n1cnc2c1c(=O)n(C)c(=O)n2C ?
Return: > 7.60

Enquiry: What do we get for C[C@H](C(=O)Nc1cncc(-c2cnc(N3CCCC3(C)C)nc2)n1)n1cnc2c1c(=O)n(C)c(=O)n2C ?
Return: < 7.00

----------
Reported IC50 by item:
# target under test: UniProt:O75762
# assay protocol: Inhibition of the TRPA1 ion channel, whole cell patch configuration (Example 1)
# assay conditions: current activation 10 µM AITC, read-out: Human TRPA1 IC50 Inward Current

Check out these entries, answers already filled in.
Enquiry: Reported IC50 for CC(C(=O)Nc1cccc(-c2cnc(N3CCC[C@@H]3C)nc2)n1)n1cnc2c1c(=O)n(C)c(=O)n2C (stereo partly drawn) [Compound 4-Q] : what is it?
Return: 25 to 75 nM

Enquiry: What do we get for C[C@H]1CCCN1c1ncc(-c2cccc(NC(=O)Cn3cnc4c3c(=O)n(C)c(=O)n4C)n2)cn1 [Comparator 2, reference compound] ?
Return: 76 to 100 nM

Enquiry: What do we get for C[C@@H](C(=O)Nc1cncc(-c2cnc(N3CCC[C@H]3C(F)(F)F)nc2)n1)n1cnc2c1c(=O)n(C)c(=O)n2C [Compound 5-T] ?
Return: < 25 nM

Enquiry: What do we get for [2H]C([2H])([2H])n1c(=O)n(C)c(=O)c2c1ncn2[C@@H](C)C(=O)Nc1cncc(-c2cnc(N3CCC[C@@H]3C)nc2)n1 [Compound 3-M] ?
Return: < 25 nM

Enquiry: What do we get for C[C@H](C(=O)Nc1cncc(-c2cnc(N3CCC[C@@H]3C)nc2)n1)n1cnc2c1c(=O)n(C)c(=O)n2C [Compound 3-L] ?
Return: > 100 nM

Continuing:
Enquiry: Reported IC50 for CC(C(=O)Nc1cncc(-c2cnc(N3CCC[C@H]3C(F)(F)F)nc2)n1)n1cnc2c1c(=O)n(C)c(=O)n2C (stereo partly drawn) [Compound 5-U] : what is it?
Return: < 25 nM

Enquiry: What do we get for C[C@H]1CCCN1c1cccc(NC(=O)[C@H](C)N2C=NC3C2C(=O)N(C)C(=O)N3C)n1 (stereo partly drawn) [Comparator 6, reference compound] ?
Return: > 100 nM

Enquiry: What do we get for CC(C(=O)Nc1cccc(-c2cnc(N3CCC[C@H]3C(F)(F)F)nc2)n1)n1cnc2c1c(=O)n(C)c(=O)n2C (stereo partly drawn) [Compound 1-C] ?
Return: < 25 nM

Enquiry: What do we get for C[C@H]1CCCN1c1ncc(-c2cncc(N(COP(=O)(O)O)C(=O)[C@H](C)n3cnc4c3c(=O)n(C)c(=O)n4C)n2)cn1 [Compound 3-J] ?
Return: > 100 nM
